- run_description: Pharmacokinetics after IV bolus in CD-1 mice
- Type: in vivo
- measurement_conditions: mouse, plasma; CD-1 mice, 1 mg/kg IV bolus

compound	value_units	AUC(0-t)
CC(=O)C1C(=O)c2ccc(C(=O)c3ccc4c(c3)C(=O)C(C(C)=O)C4=O)cc2C1=O (stereo not shown) [Example 1]	ng·h/mL	9190

---

- assayed_target: human PF4 (Homo sapiens, UniProt P02776)
- Construct: PF4 is a 70 amino acid, lysine-rich 7.8 kDa platelet-specific protein; made in house; host or cells: Escherichia coli BL21DE3 pLysS (pT7-7) and/or Drosophila S2 cells
- Sequence (P02776 32-101): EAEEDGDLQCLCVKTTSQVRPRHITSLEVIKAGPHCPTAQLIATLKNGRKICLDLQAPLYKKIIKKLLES
- run_description: Inhibition of PF4 tetramer formation (BS3 cross-linking, SDS-PAGE)
- Format: biochemical
- measurement_conditions: 3 μM inhibitor (column A); read-out: % inhibition of PF4 tetramer formation at single concentration of inhibitor
Quick reference: inhibition at 3 µM of the listed items.
endpoint: inhibition at 3 µM (%)

compound	value_units	numeric_value
O=C(NC1CCCC1)C1C(=O)c2ccc(S(=O)(=O)c3ccc4c(c3)C(=O)C(C(=O)NC3CCCC3)C4=O)cc2C1=O (stereo not shown)	%	88
CSCCC(=O)C1C(=O)c2ccc(Oc3ccc4c(c3)C(=O)C(C(=O)CCSC)C4=O)cc2C1=O (stereo not shown)	%	7
O=C(NC1CC1)C1C(=O)c2ccc(C#Cc3ccc4c(c3)C(=O)C(C(=O)NC3CC3)C4=O)cc2C1=O (stereo not shown)	%	32
CCNC(=O)C1C(=O)c2ccc(S(=O)(=O)c3ccc4c(c3)C(=O)C(C(=O)NCC)C4=O)cc2C1=O (stereo not shown)	%	35
CC(C)(C)OC(=O)N1CC[C@@H](C(=O)C2C(=O)c3ccc(C(=O)c4ccc5c(c4)C(=O)C(C(=O)[C@@H]4CCN(C(=O)OC(C)(C)C)C4)C5=O)cc3C2=O)C1 (stereo partly shown)	%	32
CC(C)(C)OC(=O)N1CCOC(C(=O)C2C(=O)c3ccc(C(=O)c4ccc5c(c4)C(=O)C(C(=O)C4CN(C(=O)OC(C)(C)C)CCO4)C5=O)cc3C2=O)C1 (stereo not shown)	%	32
CCNC(=O)C1C(=O)c2ccc(C(=O)c3ccc4c(c3)C(=O)C(C(=O)NCC)C4=O)cc2C1=O (stereo not shown)	%	39
O=C(O)CC(=O)C1C(=O)c2ccc(S(=O)(=O)c3ccc4c(c3)C(=O)C(C(=O)CC(=O)O)C4=O)cc2C1=O (stereo not shown)	%	28
Cc1ccccc1C(=O)CCC(=O)C1C(=O)c2ccc(Oc3ccc4c(c3)C(=O)C(C(=O)CCC(=O)c3ccccc3C)C4=O)cc2C1=O (stereo not shown)	%	55
COCCOCCN(CC(=O)C1C(=O)c2ccc(C(=O)c3ccc4c(c3)C(=O)C(C(=O)CN(CCOCCOC)C(=O)OC(C)(C)C)C4=O)cc2C1=O)C(=O)OC(C)(C)C (stereo not shown)	%	6
O=C(O)CCC(=O)C1C(=O)c2ccc(Oc3ccc4c(c3)C(=O)C(C(=O)CCC(=O)O)C4=O)cc2C1=O (stereo not shown)	%	47
N#CC1C(=O)c2ccc(C(=O)c3ccc4c(c3)C(=O)C(C#N)C4=O)cc2C1=O (stereo not shown)	%	42
COCC(=O)C1C(=O)c2ccc(Oc3ccc4c(c3)C(=O)C(C(=O)COC)C4=O)cc2C1=O (stereo not shown)	%	36
O=C(NCC1CCOC1)C1C(=O)c2ccc(S(=O)(=O)c3ccc4c(c3)C(=O)C(C(=O)NCC3CCOC3)C4=O)cc2C1=O (stereo not shown)	%	53
O=C(NC1CCS(=O)(=O)C1)C1C(=O)c2ccc(Oc3ccc4c(c3)C(=O)C(C(=O)NC3CCS(=O)(=O)C3)C4=O)cc2C1=O (stereo not shown)	%	60
COCC(=O)C1C(=O)c2ccc(C(=O)c3ccc4c(c3)C(=O)C(C(=O)COC)C4=O)cc2C1=O (stereo not shown)	%	72
CC[C@H](C)[C@H](NC(=O)C1C(=O)c2ccc(C(=O)c3ccc4c(c3)C(=O)C(C(=O)N[C@H](C(=O)OC)[C@@H](C)CC)C4=O)cc2C1=O)C(=O)OC (stereo partly shown)	%	13
O=C(c1ccc2c(c1)C(=O)C(C(=O)C1CCCCC1)C2=O)c1ccc2c(c1)C(=O)C(C(=O)C1CCCCC1)C2=O (stereo not shown)	%	31
CC(C)(C)OC(=O)N1CCCC[C@@H]1C(=O)C1C(=O)c2ccc(C(=O)c3ccc4c(c3)C(=O)C(C(=O)[C@H]3CCCCN3C(=O)OC(C)(C)C)C4=O)cc2C1=O (stereo partly shown)	%	31
CSCCC(=O)C1C(=O)c2ccc(S(=O)(=O)c3ccc4c(c3)C(=O)C(C(=O)CCSC)C4=O)cc2C1=O (stereo not shown)	%	18
CC(C)(C)OC(=O)NCC(=O)C1C(=O)c2ccc(C#Cc3ccc4c(c3)C(=O)C(C(=O)CNC(=O)OC(C)(C)C)C4=O)cc2C1=O (stereo not shown)	%	22
CC(=O)C1C(=O)c2ccc(N(C)S(=O)(=O)c3ccc4c(c3)C(=O)C(C(C)=O)C4=O)cc2C1=O (stereo not shown)	%	28
COCCOCCC(=O)C1C(=O)c2ccc(Oc3ccc4c(c3)C(=O)C(C(=O)CCOCCOC)C4=O)cc2C1=O (stereo not shown)	%	45
O=C(O)CNC(=O)C1C(=O)c2ccc(Oc3ccc4c(c3)C(=O)C(C(=O)NCC(=O)O)C4=O)cc2C1=O (stereo not shown)	%	47
CC[C@H](C)[C@H](NC(=O)C1C(=O)c2ccc(Oc3ccc4c(c3)C(=O)C(C(=O)N[C@H](C(=O)OC)[C@@H](C)CC)C4=O)cc2C1=O)C(=O)OC (stereo partly shown)	%	66
